Test system: delta-E Torsin1a localization in Flp-In T-REx 293 cells expressing EGFP-delta-E Torsin1a
Experiment: delta-E Torsin1a mis-localization assay (high-content imaging, % cells with EGFP puncta)
Format: cell-based, human
Details: Homo sapiens, Flp-In-T-REx-293; Table 5; read-out: ΔE TorsinA Mislocalization Assay Localization EC50
Description: To limit variation in expression levels associated with random integration or transient expression, single copies of either WT or delta-E human TOR1A cDNAs with N-terminal EGFP fusions were inserted at the FRT site in Flp-In™ T-Rex™ 293 cells (Thermo Fisher Scientific #R780-07) via flippase recombinase-mediated cassette exchange according to the manufacturer's recommended protocols. The cells were maintained at 37° C./5% CO2. All experiments were performed on cells with fewer than 5 passages. […]
pEC50: −log10 of the molar value.
Label Criterion met when pEC50 >= 5; otherwise Criterion not met.

MOLECULE	ASSAY SYSTEM	ASSIGNED LABEL
Cc1c(O)cccc1C(=O)N[C@@H](CSc1ccccc1)[C@H](O)CN1C[C@H]2CCCC[C@H]2C[C@H]1C(=O)NC(C)(C)C [Nelfinavir, nelfinavir]	delta-E Torsin1a localization in Flp-In T-REx 293 cells expressing EGFP-delta-E Torsin1a	Criterion met
CC(C)(C)NC(=O)[C@@H]1CN(Cc2cccnc2)CCN1C[C@@H](O)C[C@@H](Cc1ccccc1)C(=O)N[C@H]1c2ccccc2C[C@H]1O [Indinavir, indinavir]	delta-E Torsin1a localization in Flp-In T-REx 293 cells expressing EGFP-delta-E Torsin1a	Criterion not met
CC(C)c1nc(CN(C)C(=O)N[C@H](C(=O)N[C@@H](Cc2ccccc2)C[C@H](O)[C@H](Cc2ccccc2)NC(=O)OCc2cncs2)C(C)C)cs1 [Ritonavir, ritonavir]	delta-E Torsin1a localization in Flp-In T-REx 293 cells expressing EGFP-delta-E Torsin1a	Criterion met
Cc1cccc(C)c1OCC(=O)N[C@@H](Cc1ccccc1)[C@@H](O)C[C@H](Cc1ccccc1)NC(=O)[C@H](C(C)C)N1CCCNC1=O [Lopinavir, lopinavir]	delta-E Torsin1a localization in Flp-In T-REx 293 cells expressing EGFP-delta-E Torsin1a	Criterion met

---

In this section we review reported Emax values for a set of compounds.
Test system: delta-E Torsin1a localization in Flp-In T-REx 293 cells expressing EGFP-delta-E Torsin1a
Test: delta-E Torsin1a mis-localization assay (high-content imaging, % cells with EGFP puncta)
Format: cell-based, human
Settings: Homo sapiens, Flp-In-T-REx-293; Table 5; read-out: ΔE TorsinA Mislocalization Assay Localization Max Efficacy
READOUT KIND: Emax (%)

COMPOUND	ASSAY SYSTEM	READOUT KIND	UNIT INFO	RESULT NUMBER
CC(C)(C)NC(=O)[C@@H]1C[C@@H]2CCCC[C@@H]2CN1C[C@@H](O)[C@H](Cc1ccccc1)NC(=O)[C@H](CC(N)=O)NC(=O)c1ccc2ccccc2n1 [Saquinavir, saquinavir]	delta-E Torsin1a localization in Flp-In T-REx 293 cells expressing EGFP-delta-E Torsin1a	Emax	%	88
CC(C)c1nc(CN(C)C(=O)N[C@H](C(=O)N[C@@H](Cc2ccccc2)C[C@H](O)[C@H](Cc2ccccc2)NC(=O)OCc2cncs2)C(C)C)cs1 [Ritonavir, ritonavir]	delta-E Torsin1a localization in Flp-In T-REx 293 cells expressing EGFP-delta-E Torsin1a	Emax	%	87
Cc1c(O)cccc1C(=O)N[C@@H](CSc1ccccc1)[C@H](O)CN1C[C@H]2CCCC[C@H]2C[C@H]1C(=O)NC(C)(C)C [Nelfinavir, nelfinavir]	delta-E Torsin1a localization in Flp-In T-REx 293 cells expressing EGFP-delta-E Torsin1a	Emax	%	80
CC(C)(C)NC(=O)[C@@H]1CN(Cc2cccnc2)CCN1C[C@@H](O)C[C@@H](Cc1ccccc1)C(=O)N[C@H]1c2ccccc2C[C@H]1O [Indinavir, indinavir]	delta-E Torsin1a localization in Flp-In T-REx 293 cells expressing EGFP-delta-E Torsin1a	Emax	%	114
Cc1cccc(C)c1OCC(=O)N[C@@H](Cc1ccccc1)[C@@H](O)C[C@H](Cc1ccccc1)NC(=O)[C@H](C(C)C)N1CCCNC1=O [Lopinavir, lopinavir]	delta-E Torsin1a localization in Flp-In T-REx 293 cells expressing EGFP-delta-E Torsin1a	Emax	%	70
